# reported Efficacy; entries follow
Tested on: Sphingosine 1-phosphate receptor 1 (Homo sapiens)
Sequence (P21453 whole entry): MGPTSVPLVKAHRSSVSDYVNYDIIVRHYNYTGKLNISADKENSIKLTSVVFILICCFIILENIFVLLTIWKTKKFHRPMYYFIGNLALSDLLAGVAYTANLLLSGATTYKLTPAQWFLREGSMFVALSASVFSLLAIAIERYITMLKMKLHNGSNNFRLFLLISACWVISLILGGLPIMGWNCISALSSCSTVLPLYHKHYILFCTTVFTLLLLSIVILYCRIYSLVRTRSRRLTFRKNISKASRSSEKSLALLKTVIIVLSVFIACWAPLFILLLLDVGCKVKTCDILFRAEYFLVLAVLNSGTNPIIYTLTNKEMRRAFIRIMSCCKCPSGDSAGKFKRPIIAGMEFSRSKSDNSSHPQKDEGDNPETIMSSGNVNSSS
Measurement description: Agonist activity at human S1P1 expressed in U2OS cells coexpressing eGFP assessed as receptor internalization after 1 hr by microscopic analysis relative to 1-(4-(6-benzylbenzofuran-2-yl)-3-fluorobenzyl)azetidine-3-carboxylic acid
Format: functional, cell-based
Number in %, nothing else.

query: Item under review: `COc1ccncc1C(=O)NC(=O)Nc1ccc(-c2ccccc2)c(C(F)(F)F)c1` . Reported Efficacy?
result: 96

* * *

Measurement description: Plasma concentration in Lewis rat at 3 mg/kg, po at 24 hrs
Format: ADME, organism-based
Design: dose 3 mg/kg, route oral
Measure: concentration at 24 h (ng/mL)
The reply should be a number in ng/mL, with the unit left off.

query: Any idea what its concentration at 24 h is? The molecule is `COc1ccncc1C(=O)NC(=O)Nc1ccc(-c2ccccc2)c(C(F)(F)F)c1`
result: 160

* * *

Tested on: PXR (NR1I2) (Homo sapiens, UniProt O75469)
Sequence (O75469 whole entry): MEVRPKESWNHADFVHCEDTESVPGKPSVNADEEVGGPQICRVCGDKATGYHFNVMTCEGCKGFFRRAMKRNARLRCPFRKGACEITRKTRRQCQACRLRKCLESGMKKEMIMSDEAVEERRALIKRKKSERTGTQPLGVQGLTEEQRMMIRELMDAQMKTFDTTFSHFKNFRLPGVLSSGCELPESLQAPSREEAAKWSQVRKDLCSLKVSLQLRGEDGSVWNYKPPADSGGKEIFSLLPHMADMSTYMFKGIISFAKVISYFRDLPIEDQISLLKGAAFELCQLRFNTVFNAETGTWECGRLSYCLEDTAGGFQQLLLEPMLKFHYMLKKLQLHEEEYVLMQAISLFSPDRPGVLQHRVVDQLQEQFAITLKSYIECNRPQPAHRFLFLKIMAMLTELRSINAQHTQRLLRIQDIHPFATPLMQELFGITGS
Measurement description: Induction of human PXR at 10 uM relative to control
Run conditions: read-out: Activity
Measure: activity at 10 µM (%)
I only need the number, in %, no unit after it.

query: # get_value(readout= activity at 10 µM, system= PXR (NR1I2) (Homo sapiens, UniProt O75469)) for `COc1ccncc1C(=O)NC(=O)Nc1ccc(-c2ccccc2)c(C(F)(F)F)c1`
result: 3.7

* * *

Tested on: Sphingosine 1-phosphate receptor 3 (Homo sapiens, UniProt Q99500)
Sequence (Q99500 whole entry): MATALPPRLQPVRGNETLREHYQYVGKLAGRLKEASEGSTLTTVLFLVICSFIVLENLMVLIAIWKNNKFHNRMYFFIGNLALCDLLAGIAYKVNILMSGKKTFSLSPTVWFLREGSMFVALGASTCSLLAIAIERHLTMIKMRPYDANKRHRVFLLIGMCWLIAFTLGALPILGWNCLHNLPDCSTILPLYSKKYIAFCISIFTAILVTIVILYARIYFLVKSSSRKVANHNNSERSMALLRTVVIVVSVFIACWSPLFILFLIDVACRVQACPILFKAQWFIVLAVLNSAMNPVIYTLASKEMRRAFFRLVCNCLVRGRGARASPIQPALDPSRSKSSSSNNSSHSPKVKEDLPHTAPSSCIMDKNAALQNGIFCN
Measurement description: Agonist activity at human S1P3 expressed in CHO-K1 cells coexpressing Gq/i5 assessed as intracellular calcium release by fluorimetry
Measure: EC50

COc1ccccc1C(=O)NC(=S)Nc1ccc(N2CCCCC2)c(Cl)c1    > 25 µM

Next item in the queue.
query: For the molecule shown here, `COc1ccncc1C(=O)NC(=O)Nc1ccc(-c2ccccc2)c(C(F)(F)F)c1` , give the reported EC50.
result: > 25 µM

* * *

Measurement description: Apparent permeability across pig LLC-PK1 cells
Type: ADME, cell-based, Sus scrofa
Measure: Papp

Illustrative cases are given below, each with its answer.
COc1ccccc1C(=O)NC(=O)Nc1ccc(-c2ccccc2)c(C(C)C)c1    1.2 ×10⁻⁶ cm/s
COc1ccccc1C(=O)NC(=O)Nc1ccc(C(C)C)c(C(F)(F)F)c1    2.1 ×10⁻⁶ cm/s
COc1ccccc1C(=O)NC(=O)Nc1ccc(-c2nccs2)c(C(F)(F)F)c1    12 ×10⁻⁶ cm/s
COc1ccccc1C(=O)NC(=S)Nc1ccc(N2CCCCC2)c(Cl)c1    1.8 ×10⁻⁶ cm/s
COc1ccccc1C(=O)NC(=O)Nc1ccc(-c2ccccn2)c(C(F)(F)F)c1    7.4 ×10⁻⁶ cm/s

query: What value of Papp has been recorded for this entry: `COc1ccccc1C(=O)NC(=O)Nc1ccc(OCC(F)(F)F)c(C(F)(F)F)c1`
result: < 1 ×10⁻⁶ cm/s

query: Fill in: Papp of `COc1ccccc1C(=O)NC(=O)Nc1ccc(-c2ccccc2)c(C(F)(F)F)c1` is ___
result: < 1 ×10⁻⁶ cm/s

query: Any idea what its Papp is? The compound is `COc1ccccc1C(=O)NC(=O)Nc1ccc(N2CCCCC2)c(C(F)(F)F)c1`
result: < 1 ×10⁻⁶ cm/s

query: Which Papp value belongs to `COc1ccccc1C(=O)NC(=O)Nc1ccc(N2CCCCC2)c(Cl)c1` ?
result: < 1 ×10⁻⁶ cm/s
